Molecular target: GenX (PoxA, YjeA) (Escherichia coli, UniProt P0A8N7)
Sequence (P0A8N7 1-325): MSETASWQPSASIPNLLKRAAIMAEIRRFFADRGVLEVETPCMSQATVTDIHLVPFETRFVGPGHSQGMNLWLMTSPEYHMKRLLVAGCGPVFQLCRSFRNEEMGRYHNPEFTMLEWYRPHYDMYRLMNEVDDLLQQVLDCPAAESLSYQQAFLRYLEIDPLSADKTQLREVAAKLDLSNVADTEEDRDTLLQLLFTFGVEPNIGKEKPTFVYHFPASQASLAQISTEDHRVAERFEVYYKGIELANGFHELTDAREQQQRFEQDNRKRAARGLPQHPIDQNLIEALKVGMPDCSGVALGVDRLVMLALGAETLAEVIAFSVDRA
What pKi was measured for each of the following?
Quick note: pKi means taking -log10 of the concentration in moles per liter.

Lab note: NCCCC[C@H](N)C(=O)NO [compound 2, L-lysine hydroxamate] gave pKi of 3.82

Lab note: NCCCC[C@H](N)C(N)=O [compound 3, lysinamide] gave pKi of 3.55
